# Tested on: HOP-62 NSCLC
# Measurement protocol: NCI tumour cell line growth inhibition, 48 h; in the data active = GI50 below about 0.43 µM; inactive = the rest
Just give me one of these, please: true (1) (active), false (0) (inactive)

molecule=COC(=O)[C@]12CCC(C)(C)C[C@H]1C1=CC[C@@H]3[C@@]4(C)C/C(=C/c5cccnc5)C(=O)C(C)(C)[C@@H]4CC[C@@]3(C)[C@]1(C)CC2 target_entity="HOP-62 NSCLC" discrete_label="false (0)"

Here is the next item to consider.
Prompt line: # fetch the recorded call for CC(C)(C)OC(=O)N(CCCN(CCn1c2c(c3ccccc3c1=O)C(=O)c1ccccc1-2)C(=O)OC(C)(C)C)CCn1c2c(c3ccccc3c1=O)C(=O)c1ccccc1-2 here
Response line: false (0)

====

# Test system: IGROV1 ovarian
# Measurement protocol: NCI tumour cell line growth inhibition, 48 h
The reader will find reported TGI values listed item by item below.

compound=O=c1[nH]nc(-c2cccc(Br)c2)[nH]1 measured="> 100 µM"
compound="Cc1ccc(S(=O)(=O)OC2C3OC(C)(C)OC3OC2C(c2cc(O)c3c(c2O)C(=O)c2ccccc2C3=O)c2cc(O)c3c(c2O)C(=O)c2ccccc2C3=O)cc1 (stereo not drawn)" measured="> 10 µM"
compound="C=C1CC[C@@]2(OC1)OC1C[C@H]3[C@@H]4CC=C5C[C@@H](O)CC(OC6OCC(OC(=O)[C@@H](O)[C@@H](C)CC)C(OC(C)=O)C6OC6OC(C)C(O)C(O)C6O)[C@]5(C)[C@H]4CC[C@]3(C)C1[C@@H]2C (stereo partly drawn)" measured="7.79 µM"
compound=O=[N+]([O-])C(C(Cl)=C(Cl)Cl)=C(N1CCOCC1)N1CCOCC1 measured="> 100 µM"
compound=CCOC(=O)N/N=C(/N)Cc1ccccc1 measured="> 100 µM"
compound=O=C1NC(Nc2cccc(Cl)c2)=N/C1=C\c1ccc(Cl)c(Cl)c1 measured="18.7 µM"

Prompt line: Entry O=C(CC(=O)N1N=C(c2ccccc2)C(N=Nc2ccc(Cl)cc2)C1=O)Nc1ccccc1Cl (stereo not drawn) : reported TGI = ?
Response line: > 100 µM

Prompt line: Same question, CC(=O)NC(CCCN)C(=O)NCc1ccccc1 (stereo not drawn) this time
Response line: > 100 µM

Prompt line: Next up: O=C(NC1CCCCCC1)C1C(=O)N(C2CCCCCC2)C(=O)/C1=N\O (stereo not drawn)
Response line: > 100 µM

Prompt line: Same lookup for COc1cc2c(c(OC)c1OC)-c1ccc(SC)c(=O)cc1C(CC(=O)Oc1ccc([N+](=O)[O-])cc1)C2 (stereo not drawn) , please.
Response line: > 49.2 µM

Prompt line: Param item: CNC(=O)N1CCN(C(=O)NC)CCN(C(=O)NC)CC1
Response line: > 100 µM

Prompt line: Follow-up item: Cc1cc(C)cc(Nc2cc(C)nc3nc(C(F)(F)F)nn23)c1
Response line: > 100 µM

====

Listing of entries alongside the reported TGI.
# Test system: SR leukemia
# Measurement protocol: NCI tumour cell line growth inhibition, 48 h

Prompt line: Name the reported TGI value associated with the molecule COc1cc2c3c(n(CCCBr)c(=O)c2cc1OC)-c1ccc(NC(C)=O)cc1C3=O
Response line: 12.6 µM

Prompt line: Also COc1cccc(NCc2nnc(Nc3ccc(Cl)cc3)c3ccccc23)c1 ?
Response line: 8.85 µM

Prompt line: Entry CC(C)=[CH][Sb]([Br])([CH]=C(C)C)([CH]=C(C)C)[CH]=C(C)C please
Response line: > 100 µM
